Measured values drawn from PubChem BioAssay (EPA / NIEHS) for this set.

read-out: Vascular endothelial growth factor receptor 2 (Homo sapiens); assay: BSK_4H_VEGFRII: BioMAP Diversity Plus: 4H Assay for Vascular endothelial growth factor receptor 2 (VEGFR2) Biomarker Activity (AID 2283031); settings: primary human endothelial cells (HUVEC); actives raise or lower the signal
Activity calls are given as the source filed them. The calls were made as follows: active = hit-call score of the fitted dose curve at least 0.9, where 1 is the maximum; inactive = score below 0.9.
Respond with a class label; see active, inactive

The examples below pair each entry with its known result.
*Q* GET /call?item= OCCOCCO returns the recorded outcome of this test.
*A* inactive

*Q* Would you mind telling me which call this test gave CN(C)c1ccc(C(=O)c2ccc(N(C)C)cc2)cc1 ?
*A* inactive

*Q* Which outcome did this test record for the compound CC(C)N(Cc1ccccc1)C(=O)C(C)(C)C ?
*A* inactive

*Q* Any idea what this test logged for Cc1cccc(N)c1N ?
*A* inactive

*Q* Lab log entry: O=Cc1ccco1 — outcome as called in the assay?
*A* inactive

*Q* Which outcome was entered for the compound Nc1cc(Cl)cc(C(=O)O)c1Cl in this test?
*A* inactive

Continuing:
*Q* Look up the recorded call for CCCSC(=O)N(CCC)CCC in this test.
*A* inactive

*Q* Call for entry CCOc1cccc(C2(N3CCN(c4ccccc4)CC3)CCC(C)CC2)c1 (stereo not given) :
*A* inactive

*Q* # lookup: test call for Nc1ccc(Oc2ccc(N)cc2)cc1
*A* inactive

*Q* Please let me know the test result on file for O=C1CCCO1 .
*A* inactive

*Q* Could you kindly confirm the outcome this assay logged for CCOC(=O)[C@]1(c2ccccc2)Oc2ccccc2[C@@H]1N ?
*A* inactive

*Q* // param item: CCNS(=O)(=O)C(F)(F)C(F)(F)C(F)(F)C(F)(F)C(F)(F)C(F)(F)C(F)(F)C(F)(F)F ; yields the recorded call
*A* inactive

*Q* Hi, sorry to bother you, what did the test record for OCCCBr ?
*A* inactive

*Q* Can you look up the reported call for c1ccc(NNc2ccccc2)cc1 for me?
*A* inactive

*Q* Each compound tested received a call. Report the one for O=C(N[C@H](c1ccccc1)[C@@H]1CN2CCC1CC2)c1c(Cl)ccc(C(F)(F)F)c1Cl .
*A* inactive

*Q* What did the test return for COC(=O)Nc1nc2ccccc2[nH]1 ?
*A* inactive

* * *

read-out: Alkaline Phosphatase, Placental (ALPP) gene, ALPP (gene 250); experiment: LTEA_HepaRG_ALPP: Life Technologies and Expression Analysis (LTEA) Assay for Alkaline Phosphatase, Placental (ALPP) gene using HepaRG (AID 2283468); settings: mRNA level, 48 h; actives raise or lower the signal
Active and inactive are the calls of the source. Rule for the calls: active = hit-call score of the fitted dose curve at least 0.9, where 1 is the maximum; inactive = score below 0.9.
Result category, one only: active, inactive

*Q* Test call for this compound, please: CC(C)COC(=O)c1ccccc1C(=O)OCC(C)C
*A* inactive

*Q* How did this test come out for CCN(CC)CCO ?
*A* inactive

*Q* State the result this test recorded for ClCCOCCCl .
*A* inactive

*Q* Give the logged outcome of this assay for the following compound: Clc1ccc(Cl)c(Cl)c1
*A* active

*Q* Please share the test call associated with CC(C)N(Cc1ccccc1)C(=O)C(C)(C)C .
*A* inactive

*Q* Please indicate how the test categorized c1ccc2c(c1)-c1cccc3cccc-2c13 .
*A* inactive

Others:
*Q* Hi team, can someone confirm the assay call for CCCCCCCCCCCCCN1CC(C)OC(C)C1 (stereo not given) ?
*A* inactive

*Q* Can you look up the reported call for C=CCc1ccc2c(c1)OCO2 for me?
*A* inactive

*Q* How was c1ccc(NNc2ccccc2)cc1 classified in this test?
*A* inactive

*Q* Tell me the assay call for Oc1ccc2ccc3cccc4ccc1c2c34 please.
*A* inactive

*Q* Given CNC(=O)Oc1cccc2c1OC(C)(C)C2 , state the outcome it received in this test.
*A* inactive

*Q* Returns: the outcome recorded for CCCCOC(=O)c1ccccc1C(=O)OCc1ccccc1 in this assay.
*A* inactive
